Where these numbers come from: patent US12037324B2

TARGET SYSTEM: AGTR1 (Homo sapiens, UniProt P30556)
Construct: host or cells: Pathunter CHO-K1 AGTR1 β-arrestin cell line (CHO-K1)
Sequence (P30556 whole entry): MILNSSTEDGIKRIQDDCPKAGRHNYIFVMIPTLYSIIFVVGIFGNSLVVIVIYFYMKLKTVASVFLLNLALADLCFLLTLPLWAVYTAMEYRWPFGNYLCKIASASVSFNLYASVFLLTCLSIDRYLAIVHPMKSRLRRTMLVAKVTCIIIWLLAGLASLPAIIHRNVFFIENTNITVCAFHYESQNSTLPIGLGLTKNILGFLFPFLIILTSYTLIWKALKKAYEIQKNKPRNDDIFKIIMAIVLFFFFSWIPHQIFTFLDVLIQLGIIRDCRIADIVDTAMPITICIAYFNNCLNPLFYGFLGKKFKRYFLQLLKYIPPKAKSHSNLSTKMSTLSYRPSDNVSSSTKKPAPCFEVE
ASSAY SUMMARY: DiscoveRx IP1 accumulation assay (HTRF), agonist mode, Pathunter CHO-K1 AGTR1 β-arrestin cell line
Assay type: cell-based
Recorded measurements of IP-1 Ymax (%), one per entry

MOLECULE | IP-1 Ymax (%)
CCc1nc2c(C)cc(C)nc2n1Cc1ccc(-c2cc(-c3ccc(C)cc3)ccc2-c2nn[nH]n2)cc1 [Example 18] | 15.4
CCc1nc2c(C)cc(C)nc2n1Cc1ccc(-c2cc(Oc3cccnc3)ccc2-c2noc(=O)[nH]2)cc1 [Example 259] | 9.9
CCc1nc2c(C)cc(C)nc2n1Cc1ccc(-c2cc(-c3ccccc3)ccc2C(=O)NS(C)(=O)=O)cc1 [Example 244] | 11.0
CC1=NC2(CCOCC2)C(=O)N1Cc1ccc(-c2cc(-c3ccccc3)ccc2-c2nn[nH]n2)cc1 [Example 172] | 9.4
CCc1nc2c(C)cc(C)nc2n1Cc1ccc(-c2cc(-c3ccc(CO)cc3)ccc2-c2nnn[nH]2)cn1 [Example 180] | 27.5
CCc1nc2c(C)cc(C)nc2n1Cc1ccc(-c2cc(-c3cn(CC(C)C)nn3)ccc2-c2nnn[nH]2)cc1 [Example 240] | 14.1
CCCC1=NC2(CCOC2)C(=O)N1Cc1ccc(-c2cc(-c3ccccc3)ccc2-c2nnn[nH]2)cc1 (single isomer, unassigned) [Example 162] | 8.9
CCc1nc2c(C)cc(C)nc2n1Cc1ccc(-c2cc(C(=O)c3ccccc3)ccc2-c2nnn[nH]2)cc1 [Example 210] | 14.8
CCc1nc2c(C)cc(C)nc2n1Cc1ccc(-c2cc(Oc3ccccc3)ccc2C(=O)O)cc1 [Example 213] | 6.9
CCc1nc2c(C)cc(C)nc2n1Cc1ccc(-c2cc(Oc3cncnc3)ccc2-c2nnn[nH]2)cc1 [Example 258] | 15.1
CCc1nc2c(C)cc(C)nc2n1Cc1ccc(-c2cc(-c3ccccc3)ccc2-c2n[nH]c(=S)o2)cc1 [Example 246] | 4.8
CCc1nc2c(C)cc(C)nc2n1Cc1ccc(-c2cc(-c3cccc4cnccc34)ccc2-c2nn[nH]n2)cc1 [Example 16] | 3.6
CCc1nc2c(C)cc(C)nc2n1Cc1ncc(-c2cc(-c3ccccc3O)ccc2-c2nnn[nH]2)cn1 [Example 189] | 12.7
Cc1ccnc(-c2ccc(-c3nn[nH]n3)c(-c3ccc(CN4C(=O)C5(CCCC5)N=C4C(C)C)cc3)c2)c1 [Example 118] | 17.1
CCc1nc2c(C)cc(C)nc2n1Cc1ccc(-c2cc(Oc3ccccc3)ccc2-c2nnn[nH]2)cc1 [Example 204] | 14.4

###

TARGET SYSTEM: AGTR1 (Homo sapiens)
Construct: host or cells: Pathunter CHO-K1 AGTR1 β-arrestin cell line (CHO-K1)
ASSAY SUMMARY: DiscoveRx β-arrestin2 recruitment assay (enzyme complementation, Pathunter CHO-K1 AGTR1 β-arrestin cell line)
Type: cell-based
SETUP CONDITIONS: DiscoveRx β-arrestin2 recruitment, maximal response
# label = true (1) if DiscoveRx β-arrestin2 Ymax (%) >= 50% else false (0)

COMPOUND | CATEGORY
CCCCC1=NC2(CCCC2)C(=O)N1Cc1ccc(-c2cc(-c3ccc(C)cc3)ccc2-c2nn[nH]n2)cc1 | false (0)
CCC1=NC2(CCOC2)C(=O)N1Cc1ccc(-c2cc(-c3cccc(C)c3)ccc2-c2nnn[nH]2)cc1 (single isomer, unassigned) [Example 166] | false (0)
CCc1nc2c(C)cc(C)nc2n1Cc1ccc(-c2cc(-c3ccccn3)ccc2-c2nn[nH]n2)cc1 | false (0)
CCOc1nc2cccc(C(=O)O)c2n1Cc1ccc(-c2cc(-c3cc(C)ccn3)ccc2-c2noc(=O)[nH]2)cc1 | true (1)
CCc1nc2c(C)cc(C)nc2n1Cc1ccc(-c2cc(-c3cccc(C)c3)ccc2-c2nnn[nH]2)cn1 | true (1)
CCc1nc2c(C)cc(C)nc2n1Cc1ccc(-c2cc(-c3cccc(C)c3)ccc2-c2nn[nH]n2)c(F)c1 | true (1)
CCc1nc2c(C)cc(C)nc2n1Cc1ccc(-c2cc(-c3cc(C(F)F)ccn3)ccc2-c2nn[nH]n2)cc1 | false (0)
CCOc1nc2cccc(C(=O)O)c2n1Cc1ccc(-c2cc(-n3ccc(C(F)(F)F)n3)ccc2-c2nn[nH]n2)cc1 | true (1)
CCCCc1ncc(C(=O)NC2COC2)n1Cc1ccc(-c2cc(-c3ccccc3)ccc2-c2nn[nH]n2)cc1 | false (0)
CCOc1nc2cccc(C(=O)O)c2n1Cc1ccc(-c2cc(-c3cc(C)ccn3)ccc2-c2nn[nH]n2)cc1 | true (1)
CCCCC1=NC2(CCCC2)C(=O)N1Cc1ccc(-c2cc(Nc3ccccc3)ccc2-c2nn[nH]n2)cc1 | false (0)
CCc1nc2c(C)cc(C)nc2n1Cc1ccc(-c2cc(-n3ncc4ccccc43)ccc2-c2nnn[nH]2)cc1 | false (0)
CCCc1nc(CC)c(C(=O)O)n1Cc1ccc(-c2cc(-c3ccccc3)ccc2-c2nn[nH]n2)cc1 | true (1)

###

TARGET SYSTEM: AGTR1 (Homo sapiens, UniProt P30556)
Construct: host or cells: Pathunter CHO-K1 AGTR1 β-arrestin cell line (CHO-K1)
ASSAY SUMMARY: DiscoveRx β-arrestin2 recruitment assay (enzyme complementation, Pathunter CHO-K1 AGTR1 β-arrestin cell line)
Format: cell-based
SETUP CONDITIONS: DiscoveRx β-arrestin2 recruitment, maximal response
Each record's class is read off its DiscoveRx β-arrestin2 Ymax (%) using these ranges: bin 0: < 30%; bin 1: ≥ 30% and < 50%; bin 2: ≥ 50%

COMPOUND | CATEGORY
CCOc1nc2cccc(C(=O)O)c2n1Cc1ccc(-c2cc(-c3cccc(C)c3)ccc2C(=O)O)cc1 | bin 1
CCCCC(=O)N(Cc1ccc(-c2cc(-c3ccccc3)ccc2-c2nn[nH]n2)cn1)C1(C(=O)O)CCCCC1 | bin 1
CCc1nc2c(C)cc(C)nc2n1Cc1ccc(-c2cc(-c3cccc(C(F)(F)F)n3)ccc2-c2nn[nH]n2)cc1 | bin 1
CCCCc1ncc(C(=O)NCc2cccnn2)n1Cc1ccc(-c2cc(-c3ccccc3)ccc2-c2nn[nH]n2)cc1 | bin 1
CCCCC1=NC2(CCCC2)C(=O)N1Cc1ccc(-c2cc(-c3ccccn3)ccc2-c2nn[nH]n2)cc1 | bin 0
CCCCc1nc(Cl)c(C(=O)O)n1Cc1ccc(-c2cc(-c3cnn(C(F)F)c3)ccc2-c2nn[nH]n2)cc1 | bin 1
CCCCc1nc(Cl)c(C(=O)O)n1Cc1ccc(-c2cc(N3CCC[C@H](C)C3)ccc2-c2nn[nH]n2)cc1 | bin 1
CCCCOC(=O)NS(=O)(=O)c1sc(-c2ccccc2C(F)(F)F)cc1-c1ccc(Cn2c(CC)nc3c(C)cc(C)nc32)cc1 | bin 2
CCc1nc2c(C)cc(C)nc2n1Cc1ccc(-c2cc(-c3ccccn3)ccc2C(=O)O)cc1 | bin 1
CCOc1nc2cccc(C(=O)O)c2n1Cc1ccc(-c2cc(-c3cc(N(C)C)ccn3)ccc2-c2noc(=O)[nH]2)cc1 | bin 2
CCCCC(=O)N(Cc1ccc(-c2cc(-c3ccccc3)ccc2-c2nn[nH]n2)cc1)C1(C(=O)O)CCC1 | bin 0
CCCCC1=NC2(CCOC2)C(=O)N1Cc1ccc(-c2cc(-c3ccccc3O)ccc2-c2nnn[nH]2)cc1 (single isomer, unassigned) [Example 150] | bin 1
CCc1nc2c(C)cc(C)nc2n1Cc1ncc(-c2cc(-c3ccccc3)ccc2-c2nnn[nH]2)cn1 | bin 2
CCc1nc2c(C)cc(C)nc2n1Cc1ccc(-c2cc(Oc3ccc(C)cn3)ccc2-c2nn[nH]n2)cc1 | bin 0
CCCCC(=O)N(Cc1ccc(-c2cc(-c3ccccc3)ccc2-c2nn[nH]n2)cc1)C(C)(C)C(=O)O | bin 1
CCCCc1nc(Cl)c(CO)n1Cc1ccc(-c2cc(-c3ccccc3)ccc2-c2nnn[nH]2)cc1 | bin 0
CCCCc1ncc(C(=O)NCCO)n1Cc1ccc(-c2cc(-c3ccccc3)ccc2C(=O)O)cc1 | bin 0
CCc1nc2c(C)cc(C)nc2n1Cc1ccc(-c2cc(-n3cc(C4=CCCC4)nn3)ccc2-c2nnn[nH]2)cc1 | bin 0
CCOc1nc2cccc(C(=O)O)c2n1Cc1ccc(-c2cc(-c3ccc(C(=O)N(C)C)cc3)ccc2C(=O)O)cc1 | bin 2
CCCCc1nc(Cl)c(C(=O)O)n1Cc1ccc(-c2cc(-c3c[nH]c4ccccc34)ccc2-c2nn[nH]n2)cc1 | bin 0
CCc1nc2c(C)cc(C)nc2n1Cc1ccc(-c2cc(-c3ccccc3)ccc2-c2nnn[nH]2)cn1 | bin 2
CCCCC1=NC2(CCOC2)C(=O)N1Cc1ccc(-c2cc(-c3cccc(C)c3)ccc2-c2nnn[nH]2)cc1 (single isomer, unassigned) [Example 152] | bin 0
CCc1nc2c(C)cc(C)nc2n1Cc1ccc(-c2cc(-c3cccc4cnccc34)ccc2-c2nn[nH]n2)cc1 | bin 0
CCCCc1nc(Cl)c(C(=O)O)n1Cc1ccc(-c2cc(-c3cc(OC)ccn3)ccc2-c2nn[nH]n2)cc1 | bin 1
CCc1nc2c(C)cc(C)nc2n1Cc1ccc(-c2cc(-c3cccc(C)c3)ccc2-c2nn[nH]n2)cc1F | bin 2
